Here we gather IC50 data for IRAK4 (Homo sapiens (Human), UniProt Q9NWZ3) reported by several publications.
Just the number please, in nM, no unit attached.

>>> df
                                   compound  data_value
0  CN(C1CC1)[C@H]1CC[C@H](Nc2ncnc3ccc(-c4cncc(O)c4)cc23)CC1           1
1  CC(C)Nc1cc(-n2ncc3cc(C#N)cnc32)ncc1-c1cn(CCCCCN)nn1           3
2  CC(C)Nc1cc(-n2ncc3cc(C#N)cnc32)ncc1-c1cn(-c2ccccc2C#N)nn1          26
3  CC(C)Nc1c(-n2cc(CCC(C)(C)O)nn2)cnc2sc(-c3ccncc3)cc12        44.8
4  CC(C)(O)[C@H](F)CNC(=O)c1cnc(-c2cnn3cc(Cl)cnc23)cc1NC1COCC1(F)F (single isomer, unassigned)           3

Reported IC50 for CC(C)(O)[C@H](F)CNC(=O)c1cnc(-c2cnn3cc(Cl)cnc23)cc1NC1COC1 : what is it?
3

Try the compound CC[C@@H]1CC(=O)N[C@@H]1COc1c(C)sc2cc(C(N)=O)c(OC)nc12
10.6

* * *

Here we gather IC50 data for IRAK4 (Homo sapiens (Human)) reported by several publications.

In [3]: df
Out[3]:
                                   molecule  assay_readout      data_value
0  CNc1cc(-c2ccc3ncnc(N[C@H]4CC[C@H](N5CCO[C@H](C)C5)CC4)c3c2)cnc1F           IC50            1 nM
1  Cn1cc(-c2cccc(C(=O)Nc3nc(CCCC(=O)NC4CC4)cn3-c3ccc(F)cc3)c2)cn1           IC50         < 50 nM
2  CCc1cn(-c2cnc(-n3ncc4cc(C#N)cnc43)cc2NC(C)C)nn1           IC50           16 nM
3  CCOC(=O)N1CC[C@H](n2cc(-c3cnc(-n4ncc5cc(C#N)cnc54)cc3NC(C)C)nn2)[C@H](O)C1           IC50           11 nM
4  Cc1cc(Nc2nc(N[C@H]3CC[C@H](O)C3)c3sccc3n2)sn1           IC50  100 to 1000 nM

Reported IC50 for Cn1cc(-c2cccc(-c3ncc(-c4cnn(C)c4)c(NCC4(O)CCNCC4(C)C)n3)c2)cn1 (centres unmarked) : what is it?
100 to 1000 nM

Try the molecule N[C@H](c1cncc(-c2ccc3cnn(-c4cccc(CO)n4)c3c2)n1)[C@H]1C[C@@H](O)C1
≤ 100 nM

Try the molecule CCCn1cc(-c2cnc(-n3ncc4cc(C#N)cnc43)cc2Nc2cnn(CC(F)F)c2)nn1
2 nM

* * *

pIC50: −log10 of the molar value.
Here we gather pIC50 data for IRAK4 (Homo sapiens (Human), UniProt Q9NWZ3) reported by several publications.
Mark Not satisfied for pIC50 values under 8, and Satisfied for everything at or above.

Use the examples below as a reference point.
>>> df
                                  structure                         system_under_test    label_value
0  Cc1cc(-c2nc(C(=O)Nc3cn4cc(S(C)(=O)=O)nc4cc3-c3ccccc3)co2)ccn1  IRAK4 (Homo sapiens (Human), UniProt Q9NWZ3)      Satisfied
1  Cn1cc(-c2ccc3[nH]c4ncnc(Nc5ccc(N6CCNCC6)cc5)c4c3c2)cn1  IRAK4 (Homo sapiens (Human), UniProt Q9NWZ3)  Not satisfied
2  Cc1c([C@H]2CC[C@H](Nc3cc(-c4ccc5cc(C#N)cnn45)ncc3C(=O)NC[C@@H](F)C(C)(C)O)CC2)cnn1C(F)F  IRAK4 (Homo sapiens (Human), UniProt Q9NWZ3)      Satisfied

Here is the next item to consider.
Given the entry CC(C)(O)[C@H](F)CNC(=O)c1cnc(Nc2ccc3ncccc3n2)cc1NC1CC1 , answer whether its pIC50 meets or surpasses 8.
Satisfied

* * *

pIC50: −log10 of the molar value.
Here we gather pIC50 data for IRAK4 (Homo sapiens (Human), UniProt Q9NWZ3) reported by several publications.

A selection of reference data follows.
compound	data-value
Cn1ncnc1-c1ccc2ncnc(N[C@H]3CC[C@H](N4CCOCC4)CC3)c2c1	6.80
N#Cc1ccc2ncnc(N[C@H]3CC[C@H](N4CCN(S(=O)(=O)CCOCCOCCOCCOCCOc5ccc6c(c5)C(=O)N(C5CCC(=O)NC5=O)C6=O)CC4)CC3)c2c1 (stereo partly shown)	≤ 6.00
COCCOc1cc(-c2cccc([C@H](C)N)n2)cc2c1cnn2-c1cncc(CO)n1	> 7.00

Please look at the following compound next.
Reported pIC50 for CNC(=O)CCCNc1nc(Nc2cc(C)ns2)nc2ccn(-c3cnn(C)c3)c12 : what is it?
6.00 to 7.00

* * *

Here we gather IC50 data for IRAK4 (Homo sapiens (Human), UniProt Q9NWZ3) reported by several publications.
Hi! Could you tag entries with IC50 below 10 nM as Met, and those at or above as Not met? Much appreciated.

Use the examples below as a reference point.
>>> print(df.to_string())
                                   molecule  label_value
0  CC(C)(O)[C@H](F)CNC(=O)c1cnc(Nc2ccn3nccc3c2)cc1NC1CCOCC1F (stereo partly shown)          Met
1  COC(=O)NC[C@H]1C[C@H](Nc2cc(-c3ccc4cc(C#N)cnn34)ncc2-c2cn(CC(=O)N3CC(F)(F)C3)nn2)C1          Met

Threshold test, IC50 < 10 nM: COc1cnc(N2CC[C@@H](Nc3cc(-c4cnn5cc(C#N)cnc45)ncc3C(=O)NC[C@@H](F)C(C)(C)O)C2)nc1
Met

Try the molecule COc1cc2nn([C@H]3CC[C@@H](O)CC3)cc2cc1NC(=O)c1cccc(C2CC2)[n+]1[O-]
Met

Try the molecule CC(C)(O)C(F)(F)CNC(=O)c1cnc(Nc2ccc3ncsc3c2)cc1NC1CC1
Met

Try the molecule C=CC(=O)N1C[C@@H](c2nc(-c3ccc(NC(=O)c4cccc(-c5ccn[nH]5)n4)nc3)no2)C[C@H](C(F)(F)F)C1
Not met

Try the molecule COc1cc2nn(C3CCOCC3)cc2cc1NC(=O)c1nc(C(F)(F)F)cs1
Not met

Try the molecule CC(C)(O)[C@H](F)CNC(=O)c1cnc2ccc(-c3cncs3)cc2c1NC1COC1
Not met

Try the molecule COc1cc2nn(C3CCN(CCC(C)(C)O)CC3)cc2cc1NC(=O)c1cccc(C(F)(F)F)n1
Met

Try the molecule COc1cc2nn([C@H]3CC[C@@](O)(C4CC4)CC3)cc2cc1NC(=O)c1cccc(C)[n+]1[O-]
Not met

Try the molecule CC(C)(O)[C@H](F)CNC(=O)c1cnc(-c2cnc3cccnn23)cc1NC1COCC1O (single isomer, unassigned)
Not met

Try the molecule COc1nc2c(OC[C@H]3NC(=O)[C@H](F)[C@H]3C)csc2cc1C(N)=O
Met

Try the molecule CC(C)Nc1cc(-n2ncc3cc(C#N)cnc32)ncc1-c1cn(CCC(F)(F)F)nn1
Met

Try the molecule CC(C)Nc1cc(Nc2ccc3ncc(Cl)cc3n2)ncc1C(=O)NC[C@@H](F)C(C)(C)O
Met

Try the molecule CC(C)Nc1cc(-c2ccc3cc(C#N)cnn23)ncc1-c1cn(C2CCN(S(C)(=O)=O)CC2)nn1
Met

Try the molecule CCNc1cc(Nc2ccc3ncsc3n2)ncc1C(=O)NC[C@@H](F)C(C)(C)O
Met

* * *

Here we gather IC50 data for IRAK4 (Homo sapiens (Human), UniProt Q9NWZ3) reported by several publications.
Just the number please, in nM, no unit attached.

A selection of reference data follows.
>>> df
                                  structure  assay_readout  data_value
0  COc1cc2nn(C3CCN(CCC4CCN(C(=O)c5ccc(OC)c(N6CCC(=O)NC6=O)c5)CC4)CC3)cc2cc1NC(=O)c1cccc(C(F)(F)F)n1           IC50         7.6
1  CN(C)[C@H]1CC[C@H](Nc2ncnc3ccc(-c4cc[nH]n4)cc23)CC1           IC50          17
2  CC(C)Nc1cc(-n2ncc3cc(C#N)cnc32)ncc1-c1cn([C@H]2CCN(S(C)(=O)=O)C[C@H]2O)nn1           IC50           7
3  CC(C)Nc1c(C(=O)N[C@H]2CC[C@H](O)CC2)cnc2ccc(-c3cn[nH]c3)cc12           IC50         9.5

Please look at the following compound next.
Reported IC50 for CC(C)(O)CCNC(=O)c1cnc2ccc(-c3cncs3)cc2c1NC1COC1 : what is it?
210
